Test system: MRC-5 cells
Assay: MTT cytotoxicity assay, MRC-5 normal fibroblasts
Format: cell-based, human
Settings: MTT, 72 h after treatment, mean ± SEM; healthy cell line

| compound | result_unit | IC50 |
| --- | --- | --- |
| COc1ccc2cc(C(C)N(O)C(C)=O)ccc2c1 (stereo not shown) [Compound 12] | µM | 63.6 |
